- test-details: Rat in vivo pharmacokinetics study after oral administration of product A, B or C
- Set-up: species or system Male Sprague-Dawley (SD) rats
- condition-context: male, Sprague-Dawley, rat, plasma, po, 10 mL·kg^−1, rats, single oral dose 10 mL·kg^−1 of product B (FF extract and water 1:1), mean±SD
Cmax by entry:
Unit ng/mL implied. Number only.

Answered cases to consult:
molecule=O=C(O)/C=C/c1ccc(O)c(O)c1 observed_value=91.1
molecule="O=c1c(O[C@@H]2O[C@H](CO)[C@H](O)[C@H](O)[C@H]2O)c(-c2ccc(O)c(O)c2)oc2cc(O)cc(O)c12 [Hyperoside]" observed_value=9.68

# next molecule below
For O=C(O)[C@]1(O)C[C@@H](O)[C@@H](O)[C@H](O)C1 the molecule record lists Cmax as 358

====

- test-details: Rat in vivo pharmacokinetics study after oral administration of product A, B or C
- Parameters: species or system Male Sprague-Dawley (SD) rats
- condition-context: male, Sprague-Dawley, rat, plasma, po, 10 mL·kg^−1, rats, oral product A, 10 mL·kg^−1
endpoint: MRT (h)
API: value field is a number in h; no unit string.

Some compounds with recorded MRT:
sample_smiles=O=c1c(O)c(-c2ccc(O)c(O)c2)oc2cc(O)cc(O)c12 endpoint=MRT output_unit=h observed_value=8.22
sample_smiles=O=C(/C=C/c1ccc(O)c(O)c1)O[C@@H]1C[C@@](O)(C(=O)O)C[C@@H](O)[C@@H]1O endpoint=MRT output_unit=h observed_value=5.37
sample_smiles=O=C(O)/C=C/c1ccc(O)c(O)c1 endpoint=MRT output_unit=h observed_value=6.65

Here's the next entry for you.
Looking up C[C@@H]1O[C@@H](OC[C@H]2O[C@@H](Oc3c(-c4ccc(O)c(O)c4)oc4cc(O)cc(O)c4c3=O)[C@H](O)[C@@H](O)[C@@H]2O)[C@H](O)[C@H](O)[C@H]1O , I found its MRT recorded as 5.02

====

- test-details: Rat in vivo pharmacokinetics study after oral administration of product A, B or C
- Set-up: species or system Male Sprague-Dawley (SD) rats
- condition-context: male, Sprague-Dawley, rat, plasma, po, 10 mL·kg^−1, rats, oral product B, 10 mL·kg^−1
# maps each entry to its Tmax
Numbers only here, please. The scale is min.

Use these answered entries as a reference point.
compound="COc1cc(C2OCC3C(c4ccc(O[C@@H]5O[C@H](CO)[C@@H](O)[C@H](O)[C@H]5O)c(OC)c4)OCC23)ccc1O (stereo partly drawn) [Pinoresinol-β-D-glucoside]" output_unit=min observed_value=10
compound="O=c1c(O[C@@H]2O[C@H](CO)[C@@H](O)[C@H](O)[C@H]2O)c(-c2ccc(O)c(O)c2)oc2cc(O)cc(O)c12 [Isoquercitrin]" output_unit=min observed_value=20
compound="C[C@@H]1O[C@@H](OC[C@H]2O[C@@H](OCCc3ccc(O)c(O)c3)[C@H](O)[C@@H](O)[C@@H]2OC(=O)/C=C/c2ccc(O)c(O)c2)[C@H](O)[C@H](O)[C@H]1O [Forsythoside A]" output_unit=min observed_value=10
compound="O=c1c(O)c(-c2ccc(O)c(O)c2)oc2cc(O)cc(O)c12 [Quercetin]" output_unit=min observed_value=10
compound="O=C(O)[C@]1(O)C[C@@H](O)[C@@H](O)[C@H](O)C1 [Quinic acid]" output_unit=min observed_value=18
compound="O=C(O)/C=C/c1ccc(O)c(O)c1 [Caffeic acid]" output_unit=min observed_value=10

Turning now to a further compound:
# Tmax of COc1cc(C[C@H]2C(=O)OC[C@@H]2Cc2ccc(OC)c(OC)c2)ccc1O [Arctigenin] = 20

Values from paper PMC4183595
